Here we gather pIC50 data for Collagenase 3 (Homo sapiens, UniProt P45452) reported by several publications.
Field pIC50 (float): negative decimal logarithm of the concentration in molar.

Please review the entries below; each comes with its answer.
Input line: Given the compound Cc1noc(-c2cc3cc(-c4ccnc(C(=O)NCc5ccc(C(=O)O)cc5)c4)ccc3[nH]2)n1 , what is its reported pIC50?
Output line: 9.70

Input line: Given the compound Cn1nc(C(=O)NCc2ccc(C(=O)O)cc2)cc1-c1ccc2[nH]c(-c3ccnc(F)c3)cc2c1 , what is its reported pIC50?
Output line: 8.70

Input line: Given the compound O=C(O)[C@@H]1[C@@H](Cn2nnc3ccc(C(F)(F)F)cc3c2=O)CC[C@H]1C(=O)c1ccc(SCc2ccccc2)cc1 (single isomer, unassigned) , what is its reported pIC50?
Output line: 5.64

Input line: Given the compound COc1ccc(-c2ccc(S(=O)(=O)N(OC(C)C)[C@H](CCNC(C)=O)C(=O)NO)cc2)cc1 , what is its reported pIC50?
Output line: 9.24

Input line: Given the compound CC#CCOc1ccc(S(=O)(=O)N(C)c2c(C(=O)NO)cc(OC)nc2OC)cc1 , what is its reported pIC50?
Output line: 6.32

Next:
Input line: Given the compound O=C(O)[C@H]1[C@H](Cn2nnc3ccccc3c2=O)CC[C@@H]1C(=O)c1ccc(OCc2ccc(F)cc2)cc1 (racemic) , what is its reported pIC50?
Output line: 7.96

Input line: Given the compound O=C(O)[C@@H]1[C@@H](Cn2nnc3ccc(C(F)(F)F)cc3c2=O)CC[C@H]1C(=O)c1cc2cc(OCCc3ccccc3)ccc2o1 (single isomer, unassigned; enantiomer 2) , what is its reported pIC50?
Output line: 6.18

Input line: Given the compound O=C(CC(CCn1nnc2ccccc2c1=O)C(=O)O)c1cc2cc(OCc3ccccc3)ccc2o1 (single isomer, unassigned; (+)) , what is its reported pIC50?
Output line: 5.00

Input line: Given the compound CCCCN1CCC(C(=O)NO)(S(=O)(=O)c2ccc(OCCC(C)C)cc2)CC1 , what is its reported pIC50?
Output line: 8.54

Input line: Given the compound CNC(=O)[C@@H](NC(=O)c1ccc(-c2ccc(NC(=O)c3cc4ccccc4o3)cn2)o1)C1CCCCC1 , what is its reported pIC50?
Output line: 7.52

Input line: Given the compound Cc1noc(-c2cc3cc(-c4cc(C(=O)NCc5ccno5)nn4C)ccc3[nH]2)n1 , what is its reported pIC50?
Output line: 7.72
